Molecular target: Sulfhydryl oxidase 1 (Homo sapiens) (UniProt O00391)
Sequence (O00391 whole entry, looked up): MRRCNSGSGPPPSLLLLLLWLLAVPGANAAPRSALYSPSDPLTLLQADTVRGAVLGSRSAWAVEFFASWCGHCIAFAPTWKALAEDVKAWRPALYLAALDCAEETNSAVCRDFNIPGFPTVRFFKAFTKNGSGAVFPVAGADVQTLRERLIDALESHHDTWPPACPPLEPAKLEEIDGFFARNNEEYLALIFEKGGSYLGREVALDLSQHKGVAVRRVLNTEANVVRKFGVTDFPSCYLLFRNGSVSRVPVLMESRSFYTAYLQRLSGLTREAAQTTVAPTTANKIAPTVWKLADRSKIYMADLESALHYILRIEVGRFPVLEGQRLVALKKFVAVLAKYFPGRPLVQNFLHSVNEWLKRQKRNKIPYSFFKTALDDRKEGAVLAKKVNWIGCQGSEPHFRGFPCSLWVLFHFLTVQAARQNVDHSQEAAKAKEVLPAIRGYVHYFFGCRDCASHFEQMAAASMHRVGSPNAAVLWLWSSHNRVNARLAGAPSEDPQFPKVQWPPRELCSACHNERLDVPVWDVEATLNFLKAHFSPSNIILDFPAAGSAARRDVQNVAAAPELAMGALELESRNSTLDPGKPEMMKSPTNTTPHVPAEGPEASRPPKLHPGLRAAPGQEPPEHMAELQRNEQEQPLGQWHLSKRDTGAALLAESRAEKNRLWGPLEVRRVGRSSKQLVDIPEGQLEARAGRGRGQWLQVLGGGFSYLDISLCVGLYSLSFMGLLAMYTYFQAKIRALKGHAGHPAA
Assay: QSOX1 enzyme inhibitors, primary screen, biochemical, ROS-Glo H2O2 luminescence, HTS (AID 1347418)
Conditions: recombinant QSOX1, ROS-Glo H2O2 luminescence; at 12.5 µM; stronger effect = higher value; active = any value above zero
Hit rate of the full screen: of about 1,300 compounds, about 750 (58%) were called active. The list shows a part of the results.
Answer each item with its documented inhibition.
Numbers only, in %.

Examples from the recorded data:
C#CCN1C(C)=C(C(=O)OC)C(c2cccc([N+](=O)[O-])c2)C(C(=O)OCC)=C1C (stereo not given)    -3
NC(CCCP(=O)(O)O)C(=O)O (stereo not given)    0

Batch request: inhibition for each of the following molecules.
1. Cn1c(=O)c2c(ncn2C)n(C)c1=O
2. CCN1CCc2nc(N)oc2CC1
3. COC1=C(OC)C(=O)c2ccccc2C1=O

Result:
1: -0.6; 2: 2.8; 3: 6.2

Batch request: inhibition for each of the following molecules.
1. COCCOC(=O)C1=C(C)NC(C)=C(C(=O)OC(C)C)C1c1cccc([N+](=O)[O-])c1 (stereo not given)
2. N[C@H](CCCP(=O)(O)O)C(=O)O
3. COCCOC(=O)C1=C(C)NC(C)=C(C(=O)OC/C=C/c2ccccc2)C1c1cccc([N+](=O)[O-])c1 (stereo not given)
4. O=c1c(O)c(-c2ccc(O)c(O)c2)oc2cc(O)cc(O)c12

Result:
[-2.5, -1.3, 5.1, 33.1]

###

Biological target: Sulfhydryl oxidase 1 (Homo sapiens)
Assay: QSOX1 enzyme inhibitors, primary screen, biochemical, ROS-Glo H2O2 luminescence, HTS (AID 1347418)
Details: recombinant QSOX1, ROS-Glo H2O2 luminescence; at 12.5 µM; stronger effect = higher value; active = any value above zero
The whole screen tested about 1,300 compounds, of which about 750 (58%) were called active. The list shows a part of the results.
Answer each item with its documented inhibition.

Examples from the recorded data:
CN1CCN(C2=Nc3cc(Cl)ccc3Nc3ccccc32)CC1    22.2% (active)
CN(C)CCCO[C@@H]1[C@H]2OC(C)(C)O[C@H]2O[C@@H]1C(O)CO (some centres not stated)    1.3% (active)
O=C1NC(c2cccc([N+](=O)[O-])c2)=CCN1c1ccccc1O    3.1% (active)
O=C(c1ccc(OCCCc2cnc[nH]2)cc1)C1CC1    -3.2% (inactive)
CC(C)C(=O)Nc1ccc([N+](=O)[O-])c(C(F)(F)F)c1    6.8% (active)

Batch request: inhibition for each of the following molecules.
1. Nc1nc(OCc2ccccc2)c2[nH]cnc2n1
2. NC(N)=N/N=C/c1c(Cl)cccc1Cl
3. O=c1c(-c2ccc(O)cc2)coc2cc(O)cc(O)c12
4. Cc1ccc2c(c1)C(N1CCN(C)CC1)=Nc1cccnc1N2
5. O=C(O)CP(=O)(O)O

Result:
["2% (active)", "-2.6% (inactive)", "-5.9% (inactive)", "15.5% (active)", "-4% (inactive)"]

Batch request: inhibition for each of the following molecules.
1. O=c1c(-c2ccc(O)cc2)coc2cc(O)ccc12
2. Fc1ccc(C(OCCCc2cnc[nH]2)c2ccc(F)cc2)cc1

Result:
1. 7.6% (active)
2. 4.3% (active)
